Below, each of the compounds is paired with its reported pEC50 value.
Target: EP2 (Homo sapiens, UniProt P43116)
Sequence (P43116 whole entry): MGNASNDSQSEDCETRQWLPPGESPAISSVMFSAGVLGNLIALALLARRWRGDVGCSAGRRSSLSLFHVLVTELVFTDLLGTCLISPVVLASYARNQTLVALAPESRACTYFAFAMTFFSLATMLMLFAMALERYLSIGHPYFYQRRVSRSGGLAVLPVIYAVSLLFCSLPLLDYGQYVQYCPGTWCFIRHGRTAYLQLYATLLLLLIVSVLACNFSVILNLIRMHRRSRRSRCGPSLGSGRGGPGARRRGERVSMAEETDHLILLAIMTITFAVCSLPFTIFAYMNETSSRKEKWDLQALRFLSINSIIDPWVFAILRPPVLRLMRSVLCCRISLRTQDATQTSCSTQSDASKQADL
Assay: EP2 cAMP
Format: cell-based
pEC50: −log10 of the molar value.

molecular-string | pEC50
O=C(O)c1ccc(CCC[C@@H]2[C@@H](C#Cc3cccc(CCCO)c3)[C@H](O)C[C@H]2Cl)s1 | 9.66
O=C(O)c1ccc(CCC[C@@H]2[C@@H](C#Cc3ccncc3)[C@H](O)C[C@H]2Cl)s1 | 8.15
O=C(O)c1ccc(CCC[C@@H]2[C@@H](/C=C/c3cc(Cl)nc(Cl)c3)[C@H](O)C[C@H]2Cl)s1 | 10.05
O=C(O)c1ccc(CCC[C@@H]2[C@@H](C#Cc3ccccn3)[C@H](O)C[C@H]2Cl)s1 | 9.70

* * *

Below, each of the compounds is paired with its reported pEC50 value.
Target: EP2 (Homo sapiens)
Assay: EP2 flipr
Format: cell-based
pEC50: −log10 of the molar value.

compound | pEC50
O=C(O)c1ccc(C=CC[C@@H]2[C@@H](C=Cc3cc(Cl)cc(Cl)c3)[C@H](O)C[C@H]2Cl)s1 [Example 1] | 7.43
O=C(O)c1ccc(CCC[C@@H]2[C@@H](/C=C/c3cc(Cl)cc(CO)c3)[C@H](O)C[C@H]2Cl)s1 [Example 2] | 7.07
O=C(O)c1ccc(CCC[C@@H]2C(=O)C[C@@H](O)[C@@H]2C#Cc2ccccc2)s1 [Example 18] | 7.66
N#C[C@@H]1C[C@@H](O)[C@H](C#Cc2ccccc2)[C@H]1CCCc1ccc(C(=O)O)s1 [Example 22] | 6.63

* * *

Molecular target: EP2 (Homo sapiens, UniProt P43116)
Test: EP2 flipr
Format: cell-based
pEC50: −log10 of the molar value.
Response key: 1.0 means pEC50 >= 7; 0.0 means pEC50 < 7.

compound | cat
C/C=C/c1cc(Cl)cc(/C=C/[C@@H]2[C@@H](CCCc3ccc(C(=O)O)s3)[C@H](Cl)C[C@H]2O)c1 [Example 10] | 0.0
O=C(O)c1ccc(CCC[C@@H]2[C@@H](/C=C\c3cc(F)cc(F)c3)[C@H](O)C[C@H]2Cl)s1 [Example 7] | 0.0
O=C(O)c1ccc(CCC[C@@H]2[C@@H](/C=C/c3cc(Cl)nc(Cl)c3)[C@H](O)C[C@H]2Cl)s1 [Example 4] | 1.0
O=C(O)c1ccc(CCC[C@@H]2[C@@H](C#Cc3ccccc3)[C@H](O)C[C@H]2F)s1 [Example 19] | 0.0

* * *

Target: EP4 (Homo sapiens, UniProt P35408)
Sequence (P35408 whole entry): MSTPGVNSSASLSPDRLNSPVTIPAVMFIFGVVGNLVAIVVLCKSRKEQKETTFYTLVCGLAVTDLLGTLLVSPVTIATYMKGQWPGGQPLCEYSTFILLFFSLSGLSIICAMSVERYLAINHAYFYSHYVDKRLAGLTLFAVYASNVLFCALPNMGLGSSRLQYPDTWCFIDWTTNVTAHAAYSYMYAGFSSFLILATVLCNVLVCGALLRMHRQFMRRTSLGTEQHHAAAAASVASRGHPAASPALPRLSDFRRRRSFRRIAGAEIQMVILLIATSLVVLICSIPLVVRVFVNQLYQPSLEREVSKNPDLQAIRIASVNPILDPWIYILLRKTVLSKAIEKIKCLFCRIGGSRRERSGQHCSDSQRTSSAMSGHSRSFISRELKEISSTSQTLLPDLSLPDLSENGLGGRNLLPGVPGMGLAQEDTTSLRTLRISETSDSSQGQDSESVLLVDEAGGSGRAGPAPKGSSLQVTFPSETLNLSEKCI
Assay: EP4 flipr

compound | tested-target | prefix-operator | EC50 / µM
O=C(O)c1ccc(CCC[C@@H]2[C@@H](/C=C/c3cncc(Cl)c3)[C@H](O)C[C@H]2Cl)s1 [Example 3] | EP4 (Homo sapiens, UniProt P35408) | = | 15.9
O=C(O)c1csc(SCC[C@@H]2[C@@H](/C=C/c3cc(Cl)cc(Cl)c3)[C@H](O)C[C@H]2Cl)n1 [Example 14] | EP4 (Homo sapiens, UniProt P35408) | = | 3.46
C=CCCc1cccc(/C=C/[C@@H]2[C@@H](CCCc3ccc(C(=O)O)s3)[C@H](Cl)C[C@H]2O)c1 [Example 9] | EP4 (Homo sapiens, UniProt P35408) | = | 17.3
O=C(O)c1ccc(CCC[C@H]2C(=O)C[C@@H](O)[C@@H]2C#Cc2ccccc2)s1 [Example 17] | EP4 (Homo sapiens, UniProt P35408) | = | 33.8
O=C(O)c1ccc(C=CC[C@@H]2[C@@H](C=Cc3cc(Cl)cc(Cl)c3)[C@H](O)C[C@H]2Cl)s1 [Example 1] | EP4 (Homo sapiens, UniProt P35408) | > | 10
O=C(O)c1ccc(CCC[C@@H]2[C@@H](C#Cc3cc(Cl)cc(Cl)c3)[C@H](O)C[C@H]2Cl)s1 [Example 25] | EP4 (Homo sapiens, UniProt P35408) | = | 1.91
O=C(O)c1ccc(CCC[C@@H]2[C@@H](/C=C/c3cc(F)cc(F)c3)[C@H](O)C[C@H]2Cl)s1 [Example 6] | EP4 (Homo sapiens, UniProt P35408) | > | 10
O=C(O)c1ccc(CCC[C@@H]2[C@@H](C#Cc3cccc(CCCO)c3)[C@H](O)C[C@H]2Cl)s1 [Example 33] | EP4 (Homo sapiens, UniProt P35408) | = | 8.99
O=C(O)c1ccc(CCC[C@@H]2[C@@H](/C=C/c3cc(Cl)nc(Cl)c3)[C@H](O)C[C@H]2Cl)s1 [Example 4] | EP4 (Homo sapiens, UniProt P35408) | = | 15.9
O=C(O)c1ccc(CCC[C@@H]2[C@@H](C#Cc3ccccn3)[C@H](O)C[C@H]2Cl)s1 [Example 30] | EP4 (Homo sapiens, UniProt P35408) | > | 10
C=CCCc1cccc(C#C[C@@H]2[C@@H](CCCc3ccc(C(=O)O)s3)[C@H](Cl)C[C@H]2O)c1 [Example 27] | EP4 (Homo sapiens, UniProt P35408) | = | 11
N#C[C@@H]1C[C@@H](O)[C@H](C#Cc2ccccc2)[C@H]1CCCc1ccc(C(=O)O)s1 [Example 22] | EP4 (Homo sapiens, UniProt P35408) | = | 21.2
O=C(O)c1ccc(CCC[C@@H]2[C@@H](C#Cc3cccnc3)[C@H](O)C[C@H]2Cl)s1 [Example 31] | EP4 (Homo sapiens, UniProt P35408) | = | 4.2
O=C(O)c1ccc(CCC[C@@H]2C(=O)C[C@@H](O)[C@@H]2C#Cc2ccccc2)s1 [Example 18] | EP4 (Homo sapiens, UniProt P35408) | = | 3.22
O=C(O)c1ccc(CCC[C@@H]2[C@@H](/C=C\c3cc(Cl)nc(Cl)c3)[C@H](O)C[C@H]2Cl)s1 [Example 5] | EP4 (Homo sapiens, UniProt P35408) | = | 1.92
